assay: Lipophilicity, logP in n-octanol/PBS of radiolabeled PSMA inhibitors; format: physicochemical; conditions: pH 7.4
recorded endpoint: logP
Answer with a bare number; do not write a unit.

Nc1ccc(C[C@@H](NC(=O)CCC(C(=O)O)N2CCN(CC(=O)O)CCN(CC(=O)O)CCN(CC(=O)O)CC2)C(=O)N[C@H](Cc2ccc(O)cc2)C(=O)N[C@H](Cc2ccc3ccccc3c2)C(=O)N[C@H](CCCCNC(=O)CCC(=O)NCCCC(NC(=O)CC[C@H](NC(=O)N[C@@H](CCC(=O)O)C(=O)O)C(=O)O)C(=O)O)C(=O)O)cc1 (stereo in doubt) [PSMA-49]	-4.01

// switching to the query molecule
Incoming: Which logP value is on record for O=C(O)CC[C@H](NC(=O)N[C@@H](CCC(=O)N[C@H](CCCNC(=O)C[C@@H](NC(=O)c1cc(C(=O)O)cc(C(=O)O)c1)C(=O)NCCCC[C@@H](NC(=O)[C@@H](Cc1ccc2ccccc2c1)NC(=O)[C@@H](Cc1ccc(O)cc1)NC(=O)[C@H](CNC(=O)c1cc(C(=O)O)cc(C(=O)O)c1)NC(=O)CCC(C(=O)O)N1CCN(CC(=O)O)CCN(CC(=O)O)CCN(CC(=O)O)CC1)C(=O)O)C(=O)O)C(=O)O)C(=O)O (some centres unmarked) [PSMA-66] ?
Outgoing: -4.25

---

Documented HSA (albumin binding) across a set of compounds
biological target: HSA (Homo sapiens, UniProt P02768); construct: purchased Daicel Chemical Industries / Chiral Technologies Europe (Illkirch, France); test: HSA binding on Chiralpak HSA column; type: in vitro ADME; details: human, 0.5 mg/mL
Sequence (P02768 25-609): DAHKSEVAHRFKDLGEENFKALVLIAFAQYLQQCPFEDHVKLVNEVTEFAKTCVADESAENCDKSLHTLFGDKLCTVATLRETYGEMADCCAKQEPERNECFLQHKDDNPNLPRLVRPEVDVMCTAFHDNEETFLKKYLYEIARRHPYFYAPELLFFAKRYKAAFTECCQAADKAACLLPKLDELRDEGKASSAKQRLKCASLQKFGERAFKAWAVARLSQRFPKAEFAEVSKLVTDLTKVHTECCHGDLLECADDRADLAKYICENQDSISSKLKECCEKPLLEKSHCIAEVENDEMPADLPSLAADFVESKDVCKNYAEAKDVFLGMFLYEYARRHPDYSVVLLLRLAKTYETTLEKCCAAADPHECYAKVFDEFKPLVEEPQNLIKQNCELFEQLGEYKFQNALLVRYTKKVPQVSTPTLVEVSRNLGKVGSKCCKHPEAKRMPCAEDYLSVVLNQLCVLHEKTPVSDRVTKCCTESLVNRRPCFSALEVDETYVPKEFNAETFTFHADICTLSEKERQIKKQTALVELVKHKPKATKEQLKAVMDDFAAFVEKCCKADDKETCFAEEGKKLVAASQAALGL
*1 amine or outer side, *2 acyl side, *3 side chain or, on linkers, in order; H or OH if unused. Where a SMILES comes first, the peptide text is derived from it. Side-chain parts run from the residue outwards. [ ]: non-standard residue; d: D form. The star is where a group is joined. ξ: configuration not given here. ξOrn(Nα-γGlu(Nα-CO-Glu)) = O=C(O)CC[C@H](NC(=O)N[C@@H](CCC(=O)NC(CCCN*)C(=O)O)C(=O)O)C(=O)O; DOTAGA = O=C(O)CN1CCN(CC(=O)O)CCN(C(CCC(=O)*)C(=O)O)CCN(CC(=O)O)CC1; Phe(4-NO2) = N[C@@H](Cc1ccc([N+](=O)[O-])cc1)C(=O)O; d2Nal = N[C@H](Cc1ccc2ccccc2c1)C(=O)O; Suc = O=C(CCC(=O)[*:2])[*:1]
Quick note: give the figure in %, leave out the unit.

Incoming: Which HSA (albumin binding) value is on record for O=C(O)CC[C@H](NC(=O)N[C@@H](CCC(=O)NC(CCCNC(=O)CCC(=O)NCCCC[C@@H](NC(=O)[C@@H](Cc1ccc2ccccc2c1)NC(=O)[C@@H](Cc1ccc(O)cc1)NC(=O)[C@H](Cc1ccc([N+](=O)[O-])cc1)NC(=O)CCC(C(=O)O)N1CCN(CC(=O)O)CCN(CC(=O)O)CCN(CC(=O)O)CC1)C(=O)O)C(=O)O)C(=O)O)C(=O)O (stereo partly drawn) [PSMA-52] ({DOTAGA}-[Phe(4-NO2)][dY][d2Nal][dK]([Suc-ξOrn(Nα-γGlu(Nα-CO-Glu))])-OH) ?
Outgoing: 95.4

Incoming: Which HSA (albumin binding) value is on record for O=C(O)CC[C@H](NC(=O)N[C@@H](CCC(=O)N[C@H](CCCNC(=O)C[C@@H](NC(=O)c1cc(C(=O)O)cc(C(=O)O)c1)C(=O)NCCCC[C@@H](NC(=O)[C@@H](Cc1ccc2ccccc2c1)NC(=O)[C@@H](Cc1ccc(O)cc1)NC(=O)[C@H](CNC(=O)c1cc(C(=O)O)cc(C(=O)O)c1)NC(=O)CCC(C(=O)O)N1CCN(CC(=O)O)CCN(CC(=O)O)CCN(CC(=O)O)CC1)C(=O)O)C(=O)O)C(=O)O)C(=O)O (stereo partly drawn) ?
Outgoing: 64.4

The origin of these recorded values is patent US11497819B2.
